- experimentSummary: Human HepG2 cell viability assay in 384 well format
- Assay type: toxicity, cell-based
- Parameters: dose 125 nL, time 70.5 hour; concentration not given beside the values
- conditionNotes: HepG2 cells, read-out: Inhibition
Reported cytotoxicity at 70.5 h values are given for each entry in this list.
measurementType: cytotoxicity at 70.5 h (%)

[
  {
    "compound": "Cn1cc(CN2CCC(CCC(=O)NCc3ccc(F)cc3)CC2)cn1",
    "measurementType": "cytotoxicity at 70.5 h",
    "experimentalValue": 4.72
  },
  {
    "compound": "Cc1cc(C(=O)NC(COCC(C)C)c2ccco2)no1 (stereo unspecified)",
    "measurementType": "cytotoxicity at 70.5 h",
    "experimentalValue": -1.3
  },
  {
    "compound": "Cc1cc(CN2CCN(CC3CC3)[C@@H]3CS(=O)(=O)C[C@@H]32)cc(C)c1O",
    "measurementType": "cytotoxicity at 70.5 h",
    "experimentalValue": -2.43
  },
  {
    "compound": "N#Cc1cccc(OCc2ccoc2C(=O)N2CCCCCC2)c1",
    "measurementType": "cytotoxicity at 70.5 h",
    "experimentalValue": -2.71
  },
  {
    "compound": "Cc1nn(-c2ccccc2)nc1C(=O)N1CCCC1c1cnn(C)c1 (stereo unspecified)",
    "measurementType": "cytotoxicity at 70.5 h",
    "experimentalValue": -18.4
  },
  {
    "compound": "COc1cccc(CN(C)C(=O)c2csc(-c3nnc[nH]3)n2)c1",
    "measurementType": "cytotoxicity at 70.5 h",
    "experimentalValue": -1.87
  },
  {
    "compound": "c1ccc(CCN2CCCC2c2cccc(Nc3nccs3)n2)cc1 (stereo unspecified)",
    "measurementType": "cytotoxicity at 70.5 h",
    "experimentalValue": 70.3
  },
  {
    "compound": "O=C1CCCN1Cc1ncn2c1CN(C(=O)C1CC=CC1)CCC2",
    "measurementType": "cytotoxicity at 70.5 h",
    "experimentalValue": -5.43
  },
  {
    "compound": "Cc1nc(C(=O)N2CCOC(c3nc(C(C)C)n[nH]3)C2)c[nH]1 (stereo unspecified)",
    "measurementType": "cytotoxicity at 70.5 h",
    "experimentalValue": -2.01
  },
  {
    "compound": "CN(C)C(=O)COC[C@@]12CCC[C@@H]1CN(C1CCC1)C2",
    "measurementType": "cytotoxicity at 70.5 h",
    "experimentalValue": -10.9
  },
  {
    "compound": "O=C(NCc1ccc(Br)cc1)C1(O)CCSCC1",
    "measurementType": "cytotoxicity at 70.5 h",
    "experimentalValue": -1.14
  }
]

---

- experimentSummary: Human HepG2 cell viability assay in 384 well format
- Assay type: toxicity, cell-based
- Set-up: dose 125 nL, time 70.5 hour; concentration not given beside the values
- conditionNotes: HepG2 cells, read-out: Inhibition
Reported cytotoxicity at 70.5 h values are given for each entry in this list.

[
  {
    "compound": "Cc1nn(C)c(C)c1C1COCCN1c1ncnc2c(C)cccc12 (stereo not drawn)",
    "cytotoxicity at 70.5 h": "-6.31%"
  },
  {
    "compound": "OC1(c2ccccc2F)CCN(Cc2ccccc2N2CCCC2)CC1",
    "cytotoxicity at 70.5 h": "12.6%"
  },
  {
    "compound": "CC(C)C(=O)N1CCC(c2nc(O)cc(-c3ccncc3)n2)CC1",
    "cytotoxicity at 70.5 h": "-15.8%"
  },
  {
    "compound": "O=S(=O)(c1ccc2c(c1)OCCO2)N1CCC(OCc2ccccn2)C1 (stereo not drawn)",
    "cytotoxicity at 70.5 h": "-8.08%"
  },
  {
    "compound": "CNc1nc(CNC(=O)Nc2ccc(OC)cc2C)cs1",
    "cytotoxicity at 70.5 h": "-7.81%"
  },
  {
    "compound": "CCOC(=O)C1CCCN(c2nccc(-n3nc(C)cc3C)n2)C1 (stereo not drawn)",
    "cytotoxicity at 70.5 h": "-9.69%"
  },
  {
    "compound": "CCOC(=O)N1C[C@H]2CC[C@@H]1CN(Cc1ccccc1)C2",
    "cytotoxicity at 70.5 h": "-6.47%"
  },
  {
    "compound": "O=C(NCc1cc2ccccc2s1)c1cc(CN2CCCC(O)C2)on1 (stereo not drawn)",
    "cytotoxicity at 70.5 h": "-3.19%"
  },
  {
    "compound": "CC(C)c1noc([C@@H]2C[C@H](NS(=O)(=O)Cc3ccccc3)CN2C)n1",
    "cytotoxicity at 70.5 h": "-0.576%"
  },
  {
    "compound": "Cc1nc(Nc2nccs2)cc(C2CN(C(C)C)C2)n1",
    "cytotoxicity at 70.5 h": "-5.94%"
  },
  {
    "compound": "CN(C)S(=O)(=O)c1ccc(-c2nc(C#N)c(NC3CC3)o2)o1",
    "cytotoxicity at 70.5 h": "-4.74%"
  },
  {
    "compound": "Cc1c(NCc2ccc(C#N)cc2)cccc1S(=O)(=O)NC1CC1",
    "cytotoxicity at 70.5 h": "1.12%"
  },
  {
    "compound": "Cc1ncccc1Oc1ncnc(N2CCC(O)(CO)CC2)c1C",
    "cytotoxicity at 70.5 h": "-6.21%"
  },
  {
    "compound": "CC(C)c1nc(O)c2nnn(C[C@@H]3CCCN(Cc4cccs4)C3)c2n1",
    "cytotoxicity at 70.5 h": "1.47%"
  },
  {
    "compound": "O=C(C1CC1)N1C[C@H]2CNC[C@@]2(C(=O)NCCCc2ccccc2)C1",
    "cytotoxicity at 70.5 h": "-1.55%"
  },
  {
    "compound": "CCCN1C(=O)CC(N2CCN(c3ccc(F)cc3)CC2)C1=O (stereo not drawn)",
    "cytotoxicity at 70.5 h": "7.23%"
  },
  {
    "compound": "Cc1ccc2[nH]c3c(c2c1)CN(C(=O)CN(C)CC1OCCO1)CC3",
    "cytotoxicity at 70.5 h": "-1.1%"
  },
  {
    "compound": "CSCc1ccc(CNCCN2CCOCC2)o1",
    "cytotoxicity at 70.5 h": "-12.8%"
  },
  {
    "compound": "Cc1cc(C)c(CNC(=O)N2CCCC2c2ccccc2)c(=O)[nH]1 (stereo not drawn)",
    "cytotoxicity at 70.5 h": "2.02%"
  },
  {
    "compound": "Cc1noc(C)c1CNC(=O)C(C)Oc1ccccc1F (stereo not drawn)",
    "cytotoxicity at 70.5 h": "-4.89%"
  },
  {
    "compound": "CCCc1nc(C)cc(N2CCNC(C(=O)NCc3cccnc3)C2)n1 (stereo not drawn)",
    "cytotoxicity at 70.5 h": "31%"
  },
  {
    "compound": "CC(=O)N1CCN(C(=O)CNc2ccc3ncsc3c2)CC1",
    "cytotoxicity at 70.5 h": "-5.1%"
  },
  {
    "compound": "Cc1cc(C(=O)NC2CCN(c3ncccc3C#N)CC2)on1",
    "cytotoxicity at 70.5 h": "-6.25%"
  }
]
